From: the supplement of paper PMC11246515

For each entry below, report its total protein half-life in vivo value.
- experimentNotes: total protein half-life in vivo (active degradation + dilution); higher = more stable protein
- statedConditions: E. coli NCM3722 delta-lon; growth: N-lim chemostat; doubling time 6 h
Answers are plain numbers, in h.

Sample answers from the record:
MMSQPAKVLLLYAHPESQDSVANRVLLKPATQLSNVTVHDLYAHYPDFFIDIPREQALLREHEVIVFQHPLYTYSCPALLKEWLDRVLSRGFASGPGGNQLAGKYWRSVITTGEPESAYRYDALNRYPMSDVLRPFELAAGMCRMHWLSPIIIYWARRQSAQELASHARAYGDWLANPLSPGGR [P0A756] | 5.99
MNPIVINRLQRKLGYTFNHQELLQQALTHRSASSKHNERLEFLGDSILSYVIANALYHRFPRVDEGDMSRMRATLVRGNTLAELAREFELGECLRLGPGELKSGGFRRESILADTVEALIGGVFLDSDIQTVEKLILNWYQTRLDEISPGDKQKDPKTRLQEYLQGRHLPLPTYLVVQVRGEAHDQEFTIHCQVSGLSEPVVGTGSSRRKAEQAAAEQALKKLELE [P0A7Y0] | 5.08
MKCPVCHQGEMVSGIKDIPYTFRGRKTVLKGIHGLYCVHCEESIMNKEESDAFMAQVKAFRASVNAETVAPEFIVKVRKKLSLTQKEASEIFGGGVNAFSRYEKGNAQPHPSTIKLLRVLDKHPELLNEIR | 3.01

Here are 4 sequences. What values of total protein half-life in vivo were reported for them?
1. MSHTIRDKQKLKARASKIQGQVVALKKMLDEPHECAAVLQQIAAIRGAVNGLMREVIKGHLTEHIVHQGDELKREEDLDVVLKVLDSYIK
2. MQILLANPRGFCAGVDRAISIVENALAIYGAPIYVRHEVVHNRYVVDSLRERGAIFIEQISEVPDGAILIFSAHGVSQAVRNEAKSRDLTVFDATCPLVTKVHMEVARASRRGEESILIGHAGHPEVEGTMGQYSNPEGGMYLVESPDDVWKLTVKNEEKLSFMTQTTLSVDDTSDVIDALRKRFPKIVGPRKDDICYATTNRQEAVRALAEQAEVVLVVGSKNSSNSNRLAELAQRMGKRAFLIDDAKDIQEEWVKEVKCVGVTAGASAPDILVQNVVARLQQLGGGEAIPLEGREENIVFEVPKELRVDIREVD
3. MANWLNQLQSLLGQSSSSTSSSADQGLVKLLVPGALGGLAGLLVANKSARKLLTKYGTNALLVGGGAVAGTVLWNKYKDKIRAAHQDEPQFGAQSTPLDERTARLILALVFAAKSDGHIDAKERAAIDQQLRGAGVEEQGRVLIEQAIEQPLDPQRLATGVRNEEEALEIYFLSCAAIDIDHFMERSYLNALGDALKIPQDVRDGIERDLEQQKRTLAE
4. MFDIGFSELLLVFIIGLVVLGPQRLPVAVKTVAGWIRALRSLATTVQNELTQELKLQEFQDSLKKVEKASLTNLTPELKASMDELRQAAESMKRSYVANDPEKASDEAHTIHNPVVKDNEAAHEGVTPAAAQTQASSPEQKPETTPEPVVKPAADAEPKTAAPSPSSSDKP

Result block:
[6.29, 3.1, 3.56, 3.92]

----------
- experimentNotes: total protein half-life in vivo (active degradation + dilution); higher = more stable protein
- statedConditions: E. coli NCM3722 delta-clpP; growth: N-lim chemostat; doubling time 6 h
Lab note: anything with total protein half-life in vivo at or over 5 h counts as Met; the rest go in Not met.

The following sequences have reported results that may help.
MVEDILAPGLRVVFCGINPGLSSAGTGFPFAHPANRFWKVIYQAGFTDRQLKPQEAQHLLDYRCGVTKLVDRPTVQANEVSKQELHAGGRKLIEKIEDYQPQALAILGKQAYEQGFSQRGAQWGKQTLTIGSTQIWVLPNPSGLSRVSLEKLVEAYRELDQALVVRGR [P0A9H1] | Met
MNKSMLAGIGIGVAAALGVAAVASLNVFERGPQYAQVVSATPIKETVKTPRQECRNVTVTHRRPVQDENRITGSVLGAVAGGVIGHQFGGGRGKDVATVVGALGGGYAGNQIQGSLQESDTYTTTQQRCKTVYDKSEKMLGYDVTYKIGDQQGKIRMDRDPGTQIPLDSNGQLILNNKV [P0AB35] | Not met
MMMGEVQSLPSAGLHPALQDALTLALAARPQEKAPGRYELQGDNIFMNVMTFNTQSPVEKKAELHEQYIDIQLLLNGEERILFGMAGTARQCEEFHHEDDYQLCSTIDNEQAIILKPGMFAVFMPGEPHKPGCVVGEPGEIKKVVVKVKADLMA | Met
MKDKVYKRPVSILVVIYAQDTKRVLMLQRRDDPDFWQSVTGSVEEGETAPQAAMREVKEEVTIDVVAEQLTLIDCQRTVEFEIFSHLRHRYAPGVTRNTESWFCLALPHERQIVFTEHLAYKWLDAPAAAALTKSWSNRQAIEQFVINAA [P0AFC0] | Met
MNDIAHNLAQVRDKISAAATRCGRSPEEITLLAVSKTKPASAIAEAIDAGQRQFGENYVQEGVDKIRHFQELGVTGLEWHFIGPLQSNKSRLVAEHFDWCHTIDRLRIATRLNDQRPAELPPLNVLIQINISDENSKSGIQLAELDELAAAVAELPRLRLRGLMAIPAPESEYVRQFEVARQMAVAFAGLKTRYPHIDTLSLGMSDDMEAAIAAGSTMVRIGTAIFGARDYSKK | Met
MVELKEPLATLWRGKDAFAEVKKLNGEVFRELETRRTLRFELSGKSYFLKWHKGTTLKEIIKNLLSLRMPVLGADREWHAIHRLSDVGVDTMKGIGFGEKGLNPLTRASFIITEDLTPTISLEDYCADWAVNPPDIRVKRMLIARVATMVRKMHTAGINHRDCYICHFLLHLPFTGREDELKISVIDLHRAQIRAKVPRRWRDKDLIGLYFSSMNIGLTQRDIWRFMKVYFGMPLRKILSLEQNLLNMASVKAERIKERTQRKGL | Met
MTMNSFERRNKIIQLVNEQGTVLVQDLAGVFAASEATIRADLRFLEQKGVVTRFHGGAAKIMSGNSETETQEVGFKERFQLASAPKNRIAQAAVKMIHEGMTDPTHVIWTQA | Met
MATIKDVAKRANVSTTTVSHVINKTRFVAEETRNAVWAAIKELHYSPSAVARSLKVNHTKSIGLLATSSEAAYFAEIIEAVEKNCFQKGYTLILGNAWNNLEKQRAYLSMMAQKRVDGLLVMCSEYPEPLLAMLEEYRHIPMVVMDWGEAKADFTDAVIDNAFEGGYMAGRYLIERGHREIGVIPGPLERNTGAGRLAGFMKAMEEAMIKVPESWIVQGDFEPESGYRAMQQILSQPHRPTAVFCGGDIMAMGALCAADEMGLRVPQDVSLIGYDNVRNARYFTPALTTIHQPKDSLGETAFNMLLDRIVNKREEPQSIEVHPRLIERRSVADGPFRDYRR [P0ACP7] | Met
MGSINLRIDDELKARSYAALEKMGVTPSEALRLMLEYIADNERLPFKQTLLSDEDAELVEIVKERLRNPKPVRVTLDEL [P0C079] | Not met
MIYLRKANERGHANHGWLDSWHTFSFANYYDPNFMGFSALRVINDDVIEAGQGFGTHPHKDMEILTYVLEGTVEHQDSMGNKEQVPAGEFQIMSAGTGIRHSEYNPSSTERLHLYQIWIMPEENGITPRYEQRRFDAVQGKQLVLSPDARDGSLKVHQDMELYRWALLKDEQSVHQIAAERRVWIQVVKGNVTINGVKASTSDGLAIWDEQAISIHADSDSEVLLFDLPPV | Not met

Query block: Say whether MKVMRTTVATVVAATLSMSAFSVFAEASLTGAGATFPAPVYAKWADTYQKETGNKVNYQGIGSSGGVKQIIANTVDFGASDAPLSDEKLAQEGLFQFPTVIGGVVLAVNIPGLKSGELVLDGKTLGDIYLGKIKKWDDEAIAKLNPGLKLPSQNIAVVRRADGSGTSFVFTSYLAKVNEEWKNNVGTGSTVKWPIGLGGKGNDGIAAFVQRLPGAIGYVEYAYAKQNNLAYTKLISADGKPVSPTEENFANAAKGADWSKTFAQDLTNQKGEDAWPITSTTFILIHKDQKKPEQGTEVLKFFDWAYKTGAKQANDLDYASLPDSVVEQVRAAWKTNIKDSSGKPLY [P0AG82] shows total protein half-life in vivo of 5 h or more.
Result block: Met
